system under test: STARD3NL
method notes: pooled miR-30 sensor sort-seq; sequence = guide strand
run parameters: shRNA
observation type: sensor-assay potency score (higher = more potent)

- residue sequence: "TTTAACTCTATTATCCACAGTA"
  result: 0.804
- residue sequence: "TTCAACTTTACTGTCGACAGGG"
  result: 0.68
- residue sequence: "TTGATTAGGAATACAGCACAAG"
  result: -0.839
- residue sequence: "TTTAAATCGAAAAACTGCCAGA"
  result: -0.348
- residue sequence: "TGAAGCATCCTGAACTATCAGG"
  result: -0.809

###

sensor-assay potency score (higher = more potent) reference
system under test: ZNF471
method notes: pooled miR-30 sensor sort-seq; sequence = guide strand
run parameters: shRNA
observation type: sensor-assay potency score (higher = more potent)

- residue sequence: "TTAAGGATAACTTTCTTCTGAA"
  result: -0.561
- residue sequence: "TACTCTTTGATGCTGAGTGAGT"
  result: -0.705
- residue sequence: "TTTGCCAGTGTGACATCTCTGA"
  result: -0.159
- residue sequence: "TTCTCCAACATCATACTCCTGT"
  result: 0.565
- residue sequence: "TAACTTTCTTCTGAACGCCTTC"
  result: -0.31
